Biological target: Single-strand selective monofunctional uracil DNA glycosylase (Homo sapiens) (UniProt Q53HV7);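 note: enzymatic SMUG1 assay coupled with APE1, reading fluorescence at 594 nm released when a quenched double-stranded DNA oligonucleotide substrate is cleaved and separated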
Sequence (whole entry): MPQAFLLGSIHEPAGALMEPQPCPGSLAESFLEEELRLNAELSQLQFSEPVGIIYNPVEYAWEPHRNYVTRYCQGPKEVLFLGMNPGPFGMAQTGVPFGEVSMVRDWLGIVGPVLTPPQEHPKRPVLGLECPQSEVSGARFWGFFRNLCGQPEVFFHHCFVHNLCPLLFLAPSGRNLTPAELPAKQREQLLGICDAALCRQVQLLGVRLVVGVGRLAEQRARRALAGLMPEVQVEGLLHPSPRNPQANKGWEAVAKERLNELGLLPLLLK
Settings: Compound Concentration 10.0 uM, Hit No
Description: Inhibition of SMUG1 by quantifying inhibition of SMUG1-mediated cleavage and dissociation of quenched duplex DNA oligonucleotides, measured as fluorescence at 594 nm. To generate a functional strand incision and increase turn-over this assay is coupled to APE1.
// reported inhibition per item
Please give a number only; it is taken to be in %.

COCCCS(=O)(=O)c1cc(C)c(-c2ccc(F)c3c2CC[C@H]3Oc2ccc3c(c2)OC[C@H]3CC(=O)O)c(C)c1 ... 6.73
O=C(Nc1cccnn1)N1CC(C/C=C/c2cncc(Oc3ccc(C(F)(F)F)cn3)n2)C1 ... 18.1

Give the measured inhibition of `COc1ccc(-n2nc3c4ccccc4[nH]cc-3c2=O)cc1` .
-6.96

Further, for `CNC(=O)COc1cc2cc(Nc3nc(N4C[C@H](C)C[C@H](C)C4)ncc3Cl)ccc2n(C)c1=O` ?
10.3

Further, for `COc1ccccc1Nc1nc(-c2nn(Cc3c(F)cc(OCCCO)cc3F)c3ccccc23)ncc1OC` ?
13

Further, for `COCc1nc2cnc3cc(-c4c(C)noc4C)c(OC[C@H]4CCNC4)cc3c2n1[C@H](C)c1ccccc1` ?
-7.21

Further, for CC1=C(C(=O)Nc2cc3cn[nH]c3cc2F)C(c2ccc(C(F)(F)F)cc2)CC(=O)N1 (stereo unspecified) ?
22.4

Further, for `N[C@@H](CCP(=O)(O)O)C(=O)O` ?
-0.24

----------
target: G/T mismatch-specific thymine DNA glycosylase (Homo sapiens) (UniProt Q13569); details: Compound Concentration 10.0 uM, Hit No;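 note: human TDG cleavage of quenched duplex DNA oligonucleotides coupled to APE1, strand release read as fluorescence at 594 nm, inhibition of TDG activity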
Sequence (Q13569 whole entry): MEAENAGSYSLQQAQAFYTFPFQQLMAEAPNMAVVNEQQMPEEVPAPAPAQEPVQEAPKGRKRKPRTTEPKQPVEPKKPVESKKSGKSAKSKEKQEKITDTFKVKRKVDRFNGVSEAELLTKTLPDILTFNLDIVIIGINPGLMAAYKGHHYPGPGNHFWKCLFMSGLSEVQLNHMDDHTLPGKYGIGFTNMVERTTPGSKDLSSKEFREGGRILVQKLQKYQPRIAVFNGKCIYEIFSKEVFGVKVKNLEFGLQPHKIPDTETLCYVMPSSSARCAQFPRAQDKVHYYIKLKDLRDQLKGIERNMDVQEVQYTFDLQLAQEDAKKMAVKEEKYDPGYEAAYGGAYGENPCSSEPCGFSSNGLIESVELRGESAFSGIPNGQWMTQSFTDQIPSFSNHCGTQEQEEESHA
Description: Inhibition of TDG by quantifying inhibition of TDG-mediated cleavage and dissociation of quenched duplex DNA oligonucleotides, measured as fluorescence at 594 nm. To generate a functional strand incision and increase turn-over this assay is coupled to APE1.
measure: inhibition (%)
Please give a number only; it is taken to be in %.

O=S1(=O)c2cccc3cccc(c23)N1CCCN1CCN(c2ccc(F)cc2)CC1 ... 19
O=c1ccn([C@@H]2O[C@H](COP(=O)(O)OP(=O)(O)OP(=O)(O)OP(=O)(O)OC[C@H]3O[C@@H](n4ccc(=O)[nH]c4=O)[C@H](O)[C@@H]3O)[C@@H](O)[C@H]2O)c(=O)[nH]1 ... 3.7
C[C@H](NC(=O)CNC(=O)c1cccc(Cl)c1)c1ccccc1 ... 6.8
Oc1cc2c(cc1O)C(c1ccccc1)CNCC2 (stereo not drawn) ... 16.1
CCCCCCCCc1ccc(CCC(N)(CO)CO)cc1 ... 26.4
Nc1ccc(C(=O)Nc2cccc(-c3nc(N4CCOCC4)c4oc5ncccc5c4n3)c2)cn1 ... 7.37
CCO[C@H](COc1ccc(C(F)(F)F)cc1)CSc1ccc(OCC(=O)O)c(C)c1 ... 59.2
CC(C)(C[C@H]1CN(S(=O)(=O)c2cccc(C(F)(F)F)c2)c2cc(-c3cc(F)cc(OC(F)F)c3)ccc2O1)C(=O)O ... 72.3
CCCCN1CCC(COC(=O)c2cc(Cl)c(N)c3c2OCCO3)CC1 ... 14.3
Cc1cc(OC2CCS(=O)(=O)CC2)cc(C)c1-c1cccc(COc2ccc(CCC(=O)O)c(F)c2)c1 ... 45.8

Give the measured inhibition of `Cn1nc(C(=O)NCc2ccc(C(=O)O)cc2)cc1-c1ccc2[nH]ccc2c1` .
56.9

Further, for `Clc1cccc(COc2cncc(N3CCNCC3)n2)c1` ?
-5.02

Further, for `CCNC(=O)[C@H]1O[C@@H](n2cnc3c(N)nc(NCCc4ccc(CCC(=O)O)cc4)nc32)[C@H](O)[C@@H]1O` ?
0.161

Further, for `COc1ccc(CCCN2CCC(COC(c3ccccc3)c3ccccc3)CC2)cc1` ?
47.6

Further, for `N#CC1(c2ccccn2)CCN(Cc2cc(C(=O)O)c(=O)n3ccccc23)CC1` ?
45.8

Further, for `CCn1cc(-c2ccnc3[nH]c(-c4cccc(CN(C)C)c4)cc23)c(-c2ccc(NC(=O)N(C)C)cc2)n1` ?
49

Further, for `Clc1ccc(CCCOCCCN2CCCCC2)cc1` ?
8.64

Further, for `Cc1cc(OCC(=O)O)cc(C)c1Cc1ccc(O)c(C(C)C)c1` ?
63
